B1: KRT13 (parent)
chain: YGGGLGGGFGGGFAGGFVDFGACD

# Variants of: B1
# Assay overview: protein stability index of a GFP-peptide fusion (GPS, HEK-293T) (PSI 1-6); higher = more stable;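 note: lentivirally expressed fusions sorted by FACS into six bins by GFP to DsRed ratio, PSI derived from sequencing read proportions per bin multiplied by bin number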
# Condition parameters: c terminus: a fixed tail appended
Would you kindly list protein stability index for each of these variants?
Numbers only.

{"columns": ["Mutation list", "Value measured"],
 "data": [
  ["G6P", 3.58],
  ["G3L", 1.58],
  ["F13L", 1.28],
  ["A22M", 2.09],
  ["D19W", 3.27]
]}

Provide reported protein stability index for each item, in the same order as listed.
1. F9H
2. G10M
3. F20L
4. L5N
5. L5P
6. G21D

[reply]
1: 2.5; 2: 3.61; 3: 1.56; 4: 1.84; 5: 1.95; 6: 1.92
